# TARGET_UNDER_TEST: FOS;ATF3 (Homo sapiens;Homo sapiens, UniProt P01100;P18847 128-201;77-150, |)
# Sequence (P01100 other isoform, or with tags, fused parts or gaps |, chain 1 of 2): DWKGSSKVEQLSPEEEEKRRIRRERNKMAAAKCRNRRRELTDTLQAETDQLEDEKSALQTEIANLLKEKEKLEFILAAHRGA
# Sequence (P18847 other isoform, or with tags, fused parts or gaps |, chain 2 of 2): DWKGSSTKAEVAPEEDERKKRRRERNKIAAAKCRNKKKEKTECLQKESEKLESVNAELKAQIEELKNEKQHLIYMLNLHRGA
# EXPERIMENTAL_PROTOCOL: SELEX-seq (CSI, HT-SELEX, round 3); SELEX-seq: 1x PBS (10 mM phosphate, 137 mM NaCl, 2.7 mM KCl) pH 7.6, 2.5 mM DTT, 50 ng/ul poly dI-dC, 0.1% BSA, 50 nM biotinylated bZIP (1:3 with partner for heterodimers), 100 nM library, room temperature, 1 h, 3 rounds; high values mean tight binding
# EXPERIMENTAL_SETUP: protein: recombinant;recombinant; copies: 1;1; dsDNA, one strand shown
Can you tell me binding signal for the items I'm about to list?

*Q* Specify binding signal for ATGACGGAAT and stop.
*A* 0.0362 relative CSI intensity (max = 1)

*Q* Please report the measured binding signal for ATGACGTAAT
*A* 0.0389 relative CSI intensity (max = 1)

*Q* Tell me binding signal reported for ATGATGCAAT
*A* 0.0114 relative CSI intensity (max = 1)

*Q* Assign binding signal to the following record: ATGACGTCAT
*A* 0.117 relative CSI intensity (max = 1)

*Q* Return the recorded binding signal value; entry: ATGACGCAAT
*A* 0.0598 relative CSI intensity (max = 1)

*Q* Read off the recorded binding signal for CCTGACGTCA
*A* 0.0295 relative CSI intensity (max = 1)

====

# TARGET_UNDER_TEST: JUNB;BATF (Homo sapiens;Homo sapiens, UniProt P17275;Q16520 259-332;17-90, |)
# Sequence 1: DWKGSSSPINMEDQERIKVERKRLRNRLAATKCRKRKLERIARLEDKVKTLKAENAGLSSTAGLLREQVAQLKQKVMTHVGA
# Sequence 2: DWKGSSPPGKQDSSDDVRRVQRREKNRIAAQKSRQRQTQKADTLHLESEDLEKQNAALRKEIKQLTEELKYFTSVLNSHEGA
# EXPERIMENTAL_PROTOCOL: SELEX-seq (CSI, HT-SELEX, round 3); SELEX-seq: 1x PBS (10 mM phosphate, 137 mM NaCl, 2.7 mM KCl) pH 7.6, 2.5 mM DTT, 50 ng/ul poly dI-dC, 0.1% BSA, 50 nM biotinylated bZIP (1:3 with partner for heterodimers), 100 nM library, room temperature, 1 h, 3 rounds; high values mean tight binding
# EXPERIMENTAL_SETUP: protein: recombinant;recombinant; copies: 1;1; dsDNA, one strand shown
I'd appreciate it if you could supply binding signal values for the items below.

*Q* For the sequence ATGACGTCAT , give its measured binding signal value.
*A* 0.784 relative CSI intensity (max = 1)

*Q* Retrieve binding signal measured for CCTGACGTCA and print it.
*A* 0.0101 relative CSI intensity (max = 1)

*Q* Please indicate binding signal recorded for ATGACGGAAT
*A* 0.002 relative CSI intensity (max = 1)

*Q* Given ATGACGTAAT , respond with its binding signal.
*A* 0.0325 relative CSI intensity (max = 1)

====

# TARGET_UNDER_TEST: BATF3;NFIL3 (Homo sapiens;Homo sapiens, UniProt Q9NR55;Q16649 26-99;64-134, |)
# Sequence 1: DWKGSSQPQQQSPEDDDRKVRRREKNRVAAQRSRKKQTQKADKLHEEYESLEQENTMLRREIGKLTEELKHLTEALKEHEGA
# Sequence 2: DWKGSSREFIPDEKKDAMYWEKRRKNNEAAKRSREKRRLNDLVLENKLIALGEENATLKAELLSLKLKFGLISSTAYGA
# EXPERIMENTAL_PROTOCOL: SELEX-seq (CSI, HT-SELEX, round 3); SELEX-seq: 1x PBS (10 mM phosphate, 137 mM NaCl, 2.7 mM KCl) pH 7.6, 2.5 mM DTT, 50 ng/ul poly dI-dC, 0.1% BSA, 50 nM biotinylated bZIP (1:3 with partner for heterodimers), 100 nM library, room temperature, 1 h, 3 rounds; high values mean tight binding
# EXPERIMENTAL_SETUP: protein: recombinant;recombinant; copies: 1;1; dsDNA, one strand shown
Kindly state binding signal for each of the entries shown.

*Q* Given ATGATGCAAT , respond with its binding signal.
*A* 0.0307 relative CSI intensity (max = 1)

*Q* Determine its reported binding signal: ATGACGTAAT
*A* 0.178 relative CSI intensity (max = 1)

*Q* Give the value of binding signal reported for the following: CCTGACGTCA
*A* 0.00724 relative CSI intensity (max = 1)

*Q* Tell us which binding signal value is on record for ATGACGCAAT
*A* 0.0474 relative CSI intensity (max = 1)

====

Record form. Attribute: binding signal. Fill in for each entry.
# TARGET_UNDER_TEST: BATF3;CEBPG (Homo sapiens;Homo sapiens, UniProt Q9NR55;P53567 26-99;52-130, |)
# Sequence 1: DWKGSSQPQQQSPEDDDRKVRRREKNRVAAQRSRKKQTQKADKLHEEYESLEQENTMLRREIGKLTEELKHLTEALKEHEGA
# Sequence 2: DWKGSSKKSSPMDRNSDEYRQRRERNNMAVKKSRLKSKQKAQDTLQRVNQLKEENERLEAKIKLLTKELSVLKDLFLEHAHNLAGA
# EXPERIMENTAL_PROTOCOL: SELEX-seq (CSI, HT-SELEX, round 3); SELEX-seq: 1x PBS (10 mM phosphate, 137 mM NaCl, 2.7 mM KCl) pH 7.6, 2.5 mM DTT, 50 ng/ul poly dI-dC, 0.1% BSA, 50 nM biotinylated bZIP (1:3 with partner for heterodimers), 100 nM library, room temperature, 1 h, 3 rounds; high values mean tight binding
# EXPERIMENTAL_SETUP: protein: recombinant;recombinant; copies: 1;1; dsDNA, one strand shown

*Q* Return reported binding signal. Input sequence: ATGACGCAAT
*A* 0.954 relative CSI intensity (max = 1)

*Q* Look up and state reported binding signal for ATGACGTAAT
*A* 0.306 relative CSI intensity (max = 1)

*Q* # return recorded binding signal for entry ATGATGCAAT
*A* 0.78 relative CSI intensity (max = 1)

*Q* Identify the reported binding signal for the following entry. CCTGACGTCA
*A* 0.00277 relative CSI intensity (max = 1)

*Q* State, in one line, measured binding signal of ATGACGGAAT
*A* 0.00179 relative CSI intensity (max = 1)

====

# TARGET_UNDER_TEST: BATF3;CEBPA (Homo sapiens;Homo sapiens, UniProt Q9NR55;P49715 26-99;273-345, |)
# Sequence (P49715 other isoform, or with tags, fused parts or gaps |): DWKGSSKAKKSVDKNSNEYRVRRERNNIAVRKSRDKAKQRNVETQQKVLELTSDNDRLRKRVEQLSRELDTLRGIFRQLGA
# EXPERIMENTAL_PROTOCOL: SELEX-seq (CSI, HT-SELEX, round 3); SELEX-seq: 1x PBS (10 mM phosphate, 137 mM NaCl, 2.7 mM KCl) pH 7.6, 2.5 mM DTT, 50 ng/ul poly dI-dC, 0.1% BSA, 50 nM biotinylated bZIP (1:3 with partner for heterodimers), 100 nM library, room temperature, 1 h, 3 rounds; high values mean tight binding
# EXPERIMENTAL_SETUP: protein: recombinant;recombinant; copies: 1;1; dsDNA, one strand shown
Provide the reported binding signal of each item.

*Q* Report binding signal on BATF3;CEBPA (Homo sapiens;Homo sapiens, UniProt Q9NR55;P49715 26-99;273-345, |) for this entry: ATGATGCAAT
*A* 0.725 relative CSI intensity (max = 1)

*Q* Given CCTGACGTCA , report its binding signal on BATF3;CEBPA (Homo sapiens;Homo sapiens, UniProt Q9NR55;P49715 26-99;273-345, |).
*A* 0.00253 relative CSI intensity (max = 1)

*Q* Give binding signal for ATGACGTCAT tested on BATF3;CEBPA (Homo sapiens;Homo sapiens, UniProt Q9NR55;P49715 26-99;273-345, |).
*A* 0.0986 relative CSI intensity (max = 1)

*Q* Report binding signal on BATF3;CEBPA (Homo sapiens;Homo sapiens, UniProt Q9NR55;P49715 26-99;273-345, |) for this entry: ATGACGTAAT
*A* 0.226 relative CSI intensity (max = 1)

====

# TARGET_UNDER_TEST: ATF5;CEBPA (Homo sapiens;Homo sapiens, UniProt Q9Y2D1;P49715 199-275;273-345, |)
# Sequence (Q9Y2D1 other isoform, or with tags, fused parts or gaps |, chain 1 of 2): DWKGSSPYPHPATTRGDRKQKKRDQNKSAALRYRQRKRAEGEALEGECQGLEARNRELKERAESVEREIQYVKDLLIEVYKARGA
# Sequence (P49715 other isoform, or with tags, fused parts or gaps |, chain 2 of 2): as the sequence (P49715 other isoform, or with tags, fused parts or gaps |) above
# EXPERIMENTAL_PROTOCOL: SELEX-seq (CSI, HT-SELEX, round 3); SELEX-seq: 1x PBS (10 mM phosphate, 137 mM NaCl, 2.7 mM KCl) pH 7.6, 2.5 mM DTT, 50 ng/ul poly dI-dC, 0.1% BSA, 50 nM biotinylated bZIP (1:3 with partner for heterodimers), 100 nM library, room temperature, 1 h, 3 rounds; high values mean tight binding
# EXPERIMENTAL_SETUP: protein: recombinant;recombinant; copies: 1;1; dsDNA, one strand shown
Exercise: for every item that follows, state its recorded binding signal.

*Q* Using known records, supply binding signal for ATGACGCAAT
*A* 0.864 relative CSI intensity (max = 1)

*Q* Look up and state reported binding signal for ATGACGTAAT
*A* 0.488 relative CSI intensity (max = 1)

*Q* Identify measured binding signal associated with ATGATGCAAT
*A* 0.756 relative CSI intensity (max = 1)

*Q* For the sequence CCTGACGTCA , give its reported binding signal.
*A* 0.0673 relative CSI intensity (max = 1)
